test system: MCF7; test: Antiproliferative activity against human MCF7 cells assessed as cell viability at 100 uM after 72 hrs by MTT assay; format: functional; conditions: MCF7, 72 h, read-out: Activity
PARAMETER MEASURED: viability at 100 µM (%)
Numbers only; they are read as %.

Solved cases (2 shown):
compound=Brc1c(Br)c(Br)c2[nH]cnc2c1Br recorded_result=9
compound="CC(CN1c2ccccc2Sc2ccccc21)OC(=O)OC(C)Cn1cnc2c1c(=O)n(C)c(=O)n2C (centres undefined)" recorded_result=27.1

Notebook: CC(Cn1cnc2c1c(=O)n(C)c(=O)n2C)OC(=O)C(c1ccccc1)c1ccccc1 (centres undefined) , viability at 100 µM read as 67.3

Notebook: CC(Cn1cnc2c1c(=O)n(C)c(=O)n2C)OCc1cn(CCCn2cnc3c(Br)c(Br)c(Br)c(Br)c32)nn1 (centres undefined) , viability at 100 µM read as 2

Notebook: CC(Cn1cnc2c1c(=O)n(C)c(=O)n2C)OC(=O)Nc1ccccc1 (centres undefined) , viability at 100 µM read as 84.7

Notebook: CC(Cn1cnc2c1c(=O)n(C)c(=O)n2C)OC(=O)C1c2ccccc2-c2ccccc21 (centres undefined) , viability at 100 µM read as 63.5

Notebook: CC(Cn1cnc2c1c(=O)n(C)c(=O)n2C)OC(=O)N1c2ccccc2C=Cc2ccccc21 (centres undefined) , viability at 100 µM read as 82.5

Notebook: COC(C(=O)OC(C)Cn1cnc2c1c(=O)n(C)c(=O)n2C)c1ccc(C(C)(C)C)cc1 (centres undefined) , viability at 100 µM read as 63.5

Notebook: CC(Cn1cnc2c1c(=O)n(C)c(=O)n2C)OC(=O)CC(=O)c1ccccc1 (centres undefined) , viability at 100 µM read as 79.3

====

system: Candida albicans; assay: Growth inhibition of Candida albicans ATCC 90028 at 8 ug/ml incubated for 18 hrs at 35 degC by broth microdilution method relative to control; format: functional; conditions: ATCC 90028, 18 h, read-out: GI
PARAMETER MEASURED: inhibition of growth at 8 µg/mL (%)
Numbers only; they are read as %.

Solved cases (5 shown):
compound="COC(C(=O)OC(C)Cn1cnc2c1c(=O)n(C)c(=O)n2C)c1ccc(C(C)(C)C)cc1 (centres undefined)" parameter_measured="inhibition of growth at 8 µg/mL" recorded_result=100
compound="CC(Cn1cnc2c1c(=O)n(C)c(=O)n2C)OC(=O)CC(=O)c1ccccc1 (centres undefined)" parameter_measured="inhibition of growth at 8 µg/mL" recorded_result=99.8
compound="CC(Cn1cnc2c1c(=O)n(C)c(=O)n2C)OC(=O)Sc1ccccc1 (centres undefined)" parameter_measured="inhibition of growth at 8 µg/mL" recorded_result=100
compound="CC(Cn1cnc2c1c(=O)n(C)c(=O)n2C)OCc1cn(CCCn2nc3c(Br)c(Br)c(Br)c(Br)c3n2)nn1 (centres undefined)" parameter_measured="inhibition of growth at 8 µg/mL" recorded_result=100
compound="COC(C(=O)OC(C)Cn1cnc2c1c(=O)n(C)c(=O)n2C)c1ccc2ccccc2c1 (centres undefined)" parameter_measured="inhibition of growth at 8 µg/mL" recorded_result=99

Observed inhibition of growth at 8 µg/mL on Candida albicans, entry Cc1ccc(C(=O)CC(=O)OC(C)Cn2cnc3c2c(=O)n(C)c(=O)n3C)cc1 (centres undefined) , equals 100

Observed inhibition of growth at 8 µg/mL on Candida albicans, entry CC(Cn1cnc2c1c(=O)n(C)c(=O)n2C)OC(=O)Nc1ccccc1 (centres undefined) , equals 99.9

Observed inhibition of growth at 8 µg/mL on Candida albicans, entry CC(Cn1cnc2c1c(=O)n(C)c(=O)n2C)OC(=O)N1c2ccccc2C=Cc2ccccc21 (centres undefined) , equals 99.8

Observed inhibition of growth at 8 µg/mL on Candida albicans, entry CC(Cn1cnc2c1c(=O)n(C)c(=O)n2C)OC(=O)CC(=O)c1ccc(F)cc1 (centres undefined) , equals 99.8

====

Measured inhibition of growth at 16 µg/mL by item
tested on: Candida albicans; assay: Growth inhibition of Candida albicans ATCC 90028 at 16 ug/ml incubated for 18 hrs at 35 degC by broth microdilution method relative to control; assay type: functional; conditions: ATCC 90028, 18 h, read-out: GI
Note: a bare number is incomplete; add the unit.

Notebook: CC(Cn1cnc2c1c(=O)n(C)c(=O)n2C)OCc1cn(CCCn2cnc3c(Br)c(Br)c(Br)c(Br)c32)nn1 (configuration not stated) , inhibition of growth at 16 µg/mL read as 99.9%

====

system: Candida albicans; experiment: Growth inhibition of Candida albicans ATCC 90028 at 16 ug/ml incubated for 48 hrs at 35 degC by broth microdilution method relative to control; assay type: functional; conditions: ATCC 90028, 48 h, read-out: GI
Measured inhibition of growth at 16 µg/mL by item
Numbers only; they are read as %.

compound="CC(Cn1cnc2c1c(=O)n(C)c(=O)n2C)OC(=O)Nc1ccccc1 (stereo unspecified)" parameter_measured="inhibition of growth at 16 µg/mL" recorded_result=99.1
compound="CC(Cn1cnc2c1c(=O)n(C)c(=O)n2C)OCc1cn(-c2cccc3ccccc23)nn1 (stereo unspecified)" parameter_measured="inhibition of growth at 16 µg/mL" recorded_result=99.1
compound="CC(Cn1cnc2c1c(=O)n(C)c(=O)n2C)OCc1cn(CCCn2cnc3c(Br)c(Br)c(Br)c(Br)c32)nn1 (stereo unspecified)" parameter_measured="inhibition of growth at 16 µg/mL" recorded_result=100
compound="CC(Cn1cnc2c1c(=O)n(C)c(=O)n2C)OC(=O)CC(=O)c1ccc(F)cc1 (stereo unspecified)" parameter_measured="inhibition of growth at 16 µg/mL" recorded_result=99.7

Observed inhibition of growth at 16 µg/mL on Candida albicans, entry CC(Cn1cnc2c1c(=O)n(C)c(=O)n2C)OC(=O)C(c1ccccc1)c1ccccc1 (stereo unspecified) , equals 99.1

Observed inhibition of growth at 16 µg/mL on Candida albicans, entry Cc1ccc(C(=O)CC(=O)OC(C)Cn2cnc3c2c(=O)n(C)c(=O)n3C)cc1 (stereo unspecified) , equals 99.1

Observed inhibition of growth at 16 µg/mL on Candida albicans, entry COC(C(=O)OC(C)Cn1cnc2c1c(=O)n(C)c(=O)n2C)c1cccc2ccccc12 (stereo unspecified) , equals 99.4

Observed inhibition of growth at 16 µg/mL on Candida albicans, entry CC(Cn1cnc2c1c(=O)n(C)c(=O)n2C)OCc1cn(CCCn2nc3c(Br)c(Br)c(Br)c(Br)c3n2)nn1 (stereo unspecified) , equals 100

Observed inhibition of growth at 16 µg/mL on Candida albicans, entry CC(Cn1cnc2c1c(=O)n(C)c(=O)n2C)OC(=O)C1c2ccccc2-c2ccccc21 (stereo unspecified) , equals 99.3

Observed inhibition of growth at 16 µg/mL on Candida albicans, entry CC(CN1c2ccccc2Sc2ccccc21)OC(=O)OC(C)Cn1cnc2c1c(=O)n(C)c(=O)n2C (stereo unspecified) , equals 100

Observed inhibition of growth at 16 µg/mL on Candida albicans, entry CC(Cn1cnc2c1c(=O)n(C)c(=O)n2C)OC(=O)N1c2ccccc2C=Cc2ccccc21 (stereo unspecified) , equals 100

====

Measured inhibition of growth at 1 µg/mL by item
test system: Candida albicans; assay: Growth inhibition of Candida albicans ATCC 90028 at 1 ug/ml incubated for 4 hrs at 35 degC by broth microdilution method relative to control; format: functional; settings: ATCC 90028, 4 h, read-out: GI
Numbers only; they are read as %.

Solved cases (3 shown):
compound="Cc1ccc(C(=O)CC(=O)OC(C)Cn2cnc3c2c(=O)n(C)c(=O)n3C)cc1 (stereo not given)" assayed_system="Candida albicans" parameter_measured="inhibition of growth at 1 µg/mL" recorded_result=99.2
compound="COC(C(=O)OC(C)Cn1cnc2c1c(=O)n(C)c(=O)n2C)c1ccc2ccccc2c1 (stereo not given)" assayed_system="Candida albicans" parameter_measured="inhibition of growth at 1 µg/mL" recorded_result=99
compound="CC(Cn1cnc2c1c(=O)n(C)c(=O)n2C)OC(=O)CC(=O)c1ccccc1 (stereo not given)" assayed_system="Candida albicans" parameter_measured="inhibition of growth at 1 µg/mL" recorded_result=99.1

Observed inhibition of growth at 1 µg/mL on Candida albicans, entry CC(Cn1cnc2c1c(=O)n(C)c(=O)n2C)OC(=O)C(c1ccccc1)c1ccccc1 (stereo not given) , equals 99.4

Observed inhibition of growth at 1 µg/mL on Candida albicans, entry CC(Cn1cnc2c1c(=O)n(C)c(=O)n2C)OCc1cn(-c2cccc3ccccc23)nn1 (stereo not given) , equals 99.5

====

test system: CCRF-CEM; test: Antiproliferative activity against human CCRF-CEM cells assessed as cell viability at 25 uM after 72 hrs by MTT assay; assay type: functional; settings: read-out: Activity
Label Met when viability at 25 µM is strictly below 80%; otherwise label Not met.

compound="CC(Cn1cnc2c1c(=O)n(C)c(=O)n2C)OCc1cn(-c2cccc3ccccc23)nn1 (stereo not given)" assigned_class="Not met"
compound="CC(Cn1cnc2c1c(=O)n(C)c(=O)n2C)OCc1cn(CCCn2cnc3c(Br)c(Br)c(Br)c(Br)c32)nn1 (stereo not given)" assigned_class=Met
compound="CC(Cn1cnc2c1c(=O)n(C)c(=O)n2C)OC(=O)N1c2ccccc2C=Cc2ccccc21 (stereo not given)" assigned_class=Met
compound="COC(C(=O)OC(C)Cn1cnc2c1c(=O)n(C)c(=O)n2C)c1cccc2ccccc12 (stereo not given)" assigned_class="Not met"
compound="COC(C(=O)OC(C)Cn1cnc2c1c(=O)n(C)c(=O)n2C)c1ccc(C(C)(C)C)cc1 (stereo not given)" assigned_class=Met
compound="CC(Cn1cnc2c1c(=O)n(C)c(=O)n2C)OC(=O)Sc1ccccc1 (stereo not given)" assigned_class=Met
compound="CC(Cn1cnc2c1c(=O)n(C)c(=O)n2C)OCc1cn(CCCn2nc3c(Br)c(Br)c(Br)c(Br)c3n2)nn1 (stereo not given)" assigned_class=Met
compound=Brc1c(Br)c(Br)c2[nH]cnc2c1Br assigned_class=Met

Task item: For CC(Cn1cnc2c1c(=O)n(C)c(=O)n2C)OC(=O)CC(=O)c1ccc(F)cc1 (stereo not given) , is the recorded viability at 25 µM below the cut-off of 80%?
Reply: Not met

Task item: For CC(CN1c2ccccc2Sc2ccccc21)OC(=O)OC(C)Cn1cnc2c1c(=O)n(C)c(=O)n2C (stereo not given) , is the recorded viability at 25 µM below the cut-off of 80%?
Reply: Met
